Target: Phospholipase A2, membrane associated (Homo sapiens, UniProt P14555)
Sequence (P14555 whole entry): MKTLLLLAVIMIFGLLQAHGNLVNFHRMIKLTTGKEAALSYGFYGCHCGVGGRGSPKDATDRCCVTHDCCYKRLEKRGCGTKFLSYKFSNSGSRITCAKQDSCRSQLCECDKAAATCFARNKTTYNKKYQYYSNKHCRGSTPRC
Experiment: Inhibition of human nonpancreatic secretory phospholipase A2
pIC50: −log10 of the molar value.
# pIC50 per record follows
MEASURED METRIC: pIC50

> print(dat)
                        structure.as.smiles  measured.metric  meas.value
1  COc1ccc2c(c1)c(CC(N)=O)c(C)n2Cc1ccccc1OCCCCCOc1ccccc1Cn1c(C)c(CC(N)=O)c2cc(OC)ccc21            pIC50        7.62
2  COc1ccc2c(c1)c(CC(N)=O)c(C)n2Cc1ccccc1OCCCCCCOc1ccccc1Cn1c(C)c(CC(N)=O)c2cc(OC)ccc21            pIC50        7.41
3  COc1ccc2c(c1)c(CC(N)=O)c(C)n2Cc1ccccc1OCCCCCCCCOc1ccccc1Cn1c(C)c(CC(N)=O)c2cc(OC)ccc21            pIC50        7.24
